experimentalTarget: STING WT variant (Homo sapiens)
Construct: host or cells: HEK-Blue ISG KO-STING cells (Invivogen, hkb-kostg)
assayComment: SEAP reporter assay in HEK-Blue ISG KO-STING cells transfected with STING WT variant (Method 2)
Assay type: cell-based
Set-up: key: ratio of compound SEAP signal to 0.5% DMSO
assayContext: 1 ng STING vector (WT variant), compound 2.5 uM, 24 h, SEAP signal vs 0.5% DMSO
experimentalEndpoint: Fold change related to DMSO control WT

{"columns": ["molecule", "experimentalTarget", "recordedValue"],
 "data": [
  ["CCn1nc(C)cc1C(=O)Nc1nc2cc(C(N)=O)cc(OCCCN)c2n1CCC[C@H]1COc2cc(C(N)=O)cc3nc(NC(=O)c4c(F)c(C)nn4CC)n1c23.Cl [Example 51]", "STING WT variant (Homo sapiens)", 9.66],
  ["CCn1nc(C)cc1C(=O)Nc1nc2cc(C(N)=O)cc(OCCCN=C(N(C)C)N(C)C)c2n1CCC[C@H]1COc2cc(C(N)=O)cc3nc(NC(=O)c4cc(C)nn4CC)n1c23 [Example 56]", "STING WT variant (Homo sapiens)", 6.76],
  ["CCn1nc(C)cc1C(=O)Nc1nc2cc(C#N)cc(OCCCNC(=O)CN3CCOCC3)c2n1CCC[C@H]1COc2cc(C#N)cc3nc(NC(=O)c4cc(C)nn4CC)n1c23 [Example 48]", "STING WT variant (Homo sapiens)", 5.70]
]}

Recorded values, source patent US12364702B2.
